Test system: Escherichia coli TOP10
experiment.notes: shrunken log2 fold change of peptide-encoding DNA abundance (4.5 h post-induction vs induction); higher = less antimicrobial activity (less host growth inhibition)
details: time post-induction: 4.5 h; library: site-saturation at positions 5, 18, 19, 20
Items are presented alongside their recorded shrunken log2 fold change.
measure: shrunken log2 fold change

1. RRIRQRPPRLPRPRPRPMQVPRP : -0.0356
2. RRIRLRPPRLPRPRPRPRSTPRP : -0.00899
3. RRIRLRPPRLPRPRPRPHKHPRP : -0.53
4. RRIRVRPPRLPRPRPRPNKWPRP : -0.138
5. RRIRQRPPRLPRPRPRPQWPPRP : 0.239
6. RRIRKRPPRLPRPRPRPEFSPRP : 0.397
7. RRIRLRPPRLPRPRPRPDLKPRP : -0.0789
8. RRIRPRPPRLPRPRPRPDRMPRP : -0.234
9. RRIRPRPPRLPRPRPRPHENPRP : -0.0875
10. RRIRVRPPRLPRPRPRPWYDPRP : -0.00243
11. RRIRQRPPRLPRPRPRPGYSPRP : -0.00603
12. RRIRGRPPRLPRPRPRPAIHPRP : 0.164
13. RRIRYRPPRLPRPRPRPMKIPRP : -0.0574

---

System: Escherichia coli TOP10
experiment.notes: shrunken log2 fold change of peptide-encoding DNA abundance (4.5 h post-induction vs induction); higher = less antimicrobial activity (less host growth inhibition)
details: time post-induction: 4.5 h; library: site-saturation at positions 5, 18, 19, 20
Quick reference for shrunken log2 fold change among some sequences
measure: shrunken log2 fold change

1) RRIRHRPPRLPRPRPRPDHKPRP : -0.274
2) RRIRCRPPRLPRPRPRPCCPPRP : -0.316
3) RRIRNRPPRLPRPRPRPQLWPRP : -0.252
4) RRIRDRPPRLPRPRPRPWDTPRP : -0.029
5) RRIRIRPPRLPRPRPRPPGGPRP : 0.512
6) RRIRERPPRLPRPRPRPDLPPRP : -0.156
7) RRIRERPPRLPRPRPRPHYMPRP : -0.0919
8) RRIRQRPPRLPRPRPRPMYRPRP : 0.0341
9) RRIRYRPPRLPRPRPRPWLHPRP : -0.991
10) RRIRIRPPRLPRPRPRPITLPRP : -0.237
11) RRIRMRPPRLPRPRPRPKMLPRP : 0.231
12) RRIRMRPPRLPRPRPRPWTMPRP : 0.0064
13) RRIRIRPPRLPRPRPRPLDRPRP : 0.00847
14) RRIRIRPPRLPRPRPRPGINPRP : -0.603
15) RRIRCRPPRLPRPRPRPSKMPRP : -0.492
16) RRIRYRPPRLPRPRPRPIHYPRP : -0.655
17) RRIRCRPPRLPRPRPRPEYMPRP : 0.0436
18) RRIRFRPPRLPRPRPRPQCRPRP : -0.218

---

System: Escherichia coli TOP10
experiment.notes: shrunken log2 fold change of peptide-encoding DNA abundance (4.5 h post-induction vs induction); higher = less antimicrobial activity (less host growth inhibition)
details: time post-induction: 4.5 h; library: site-saturation at positions 5, 18, 19, 20
Recorded shrunken log2 fold change for the following sequences
measure: shrunken log2 fold change

1. RRIRERPPRLPRPRPRPQYPPRP : -0.208
2. RRIRPRPPRLPRPRPRPDWEPRP : 0.19
3. RRIRMRPPRLPRPRPRPHHDPRP : 0.0126
4. RRIRTRPPRLPRPRPRPTRAPRP : 0.687
5. RRIRSRPPRLPRPRPRPYAWPRP : -0.087
6. RRIRPRPPRLPRPRPRPKDHPRP : 0.0743
7. RRIRIRPPRLPRPRPRPDVQPRP : -0.192
8. RRIRMRPPRLPRPRPRPTNAPRP : 0.408
9. RRIRERPPRLPRPRPRPANGPRP : -0.042
10. RRIRYRPPRLPRPRPRPYVLPRP : -0.35
11. RRIRKRPPRLPRPRPRPPIPPRP : 0.987
12. RRIRCRPPRLPRPRPRPIFWPRP : 0.235
13. RRIRVRPPRLPRPRPRPFFPPRP : -0.0751
14. RRIRRRPPRLPRPRPRPCRGPRP : 0.17

---

Test system: Escherichia coli TOP10
experiment.notes: shrunken log2 fold change of peptide-encoding DNA abundance (4.5 h post-induction vs induction); higher = less antimicrobial activity (less host growth inhibition)
details: time post-induction: 4.5 h; library: site-saturation at positions 5, 18, 19, 20
measure: shrunken log2 fold change

1. RRIRDRPPRLPRPRPRPTRSPRP : 0.877
2. RRIRDRPPRLPRPRPRPKLMPRP : -0.146
3. RRIRTRPPRLPRPRPRPQESPRP : -0.0142
4. RRIRTRPPRLPRPRPRPFAGPRP : -0.0338

---

# shrunken log2 fold change per entry
Test system: Escherichia coli TOP10
experiment.notes: shrunken log2 fold change of peptide-encoding DNA abundance (4.5 h post-induction vs induction); higher = less antimicrobial activity (less host growth inhibition)
details: time post-induction: 4.5 h; library: site-saturation at positions 5, 18, 19, 20
measure: shrunken log2 fold change

1. RRIRSRPPRLPRPRPRPIEAPRP : 0.137
2. RRIRTRPPRLPRPRPRPGAEPRP : 0.25
3. RRIRIRPPRLPRPRPRPVEFPRP : -0.0453
4. RRIRFRPPRLPRPRPRPHRQPRP : -0.228
5. RRIRQRPPRLPRPRPRPVYVPRP : -0.216

---

Test system: Escherichia coli TOP10
experiment.notes: shrunken log2 fold change of peptide-encoding DNA abundance (4.5 h post-induction vs induction); higher = less antimicrobial activity (less host growth inhibition)
details: time post-induction: 4.5 h; library: site-saturation at positions 5, 18, 19, 20
Assign Satisfied to entries whose shrunken log2 fold change meets or exceeds -0.2; assign Not satisfied to the rest.

1. RRIRCRPPRLPRPRPRPCMNPRP : Not satisfied
2. RRIRVRPPRLPRPRPRPLRVPRP : Satisfied
3. RRIRVRPPRLPRPRPRPMQSPRP : Satisfied
4. RRIRARPPRLPRPRPRPIFQPRP : Satisfied
5. RRIRFRPPRLPRPRPRPDCNPRP : Satisfied
6. RRIRHRPPRLPRPRPRPKDKPRP : Not satisfied

---

# shrunken log2 fold change values compiled below
Test system: Escherichia coli TOP10
experiment.notes: shrunken log2 fold change of peptide-encoding DNA abundance (4.5 h post-induction vs induction); higher = less antimicrobial activity (less host growth inhibition)
details: time post-induction: 4.5 h; library: site-saturation at positions 5, 18, 19, 20
measure: shrunken log2 fold change

1) RRIRHRPPRLPRPRPRPNFSPRP : -0.415
2) RRIRVRPPRLPRPRPRPCREPRP : -0.0897
3) RRIRQRPPRLPRPRPRPTCTPRP : -0.0329
4) RRIRLRPPRLPRPRPRPDEVPRP : 0.256
5) RRIRARPPRLPRPRPRPLWSPRP : 0.263
6) RRIRNRPPRLPRPRPRPILLPRP : -0.103
7) RRIRFRPPRLPRPRPRPLIEPRP : -0.132
8) RRIRTRPPRLPRPRPRPQMWPRP : -0.0505
9) RRIRIRPPRLPRPRPRPFDMPRP : -0.142
10) RRIRYRPPRLPRPRPRPHATPRP : -0.191

---

System: Escherichia coli TOP10;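 further: peptides expressed intracellularly from a pBAD plasmid library in pooled LB shake-flask culture, induced with 0.3% L-arabinose, DNA abundance read by NGS, three biological replicates, DESeq2 with apeglm shrinkage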
experiment.notes: shrunken log2 fold change of peptide-encoding DNA abundance (4.5 h post-induction vs induction); higher = less antimicrobial activity (less host growth inhibition)
details: time post-induction: 4.5 h; library: site-saturation at positions 5, 18, 19, 20
measure: shrunken log2 fold change

1. RRIRTRPPRLPRPRPRPNMDPRP : -0.508
2. RRIRLRPPRLPRPRPRPAVKPRP : -0.131
3. RRIRDRPPRLPRPRPRPQNEPRP : -0.24
4. RRIRARPPRLPRPRPRPDQYPRP : 0.151
5. RRIRLRPPRLPRPRPRPGRWPRP : 0.411
6. RRIRMRPPRLPRPRPRPVHGPRP : 0.32
7. RRIRWRPPRLPRPRPRPKSEPRP : 0.502
8. RRIRSRPPRLPRPRPRPRDKPRP : 0.0811
9. RRIRVRPPRLPRPRPRPRFRPRP : 0.193
10. RRIRYRPPRLPRPRPRPNDIPRP : -0.299
11. RRIRMRPPRLPRPRPRPDLNPRP : 0.178
12. RRIRGRPPRLPRPRPRPDHMPRP : 0.0349
13. RRIRWRPPRLPRPRPRPTHPPRP : 0.709
14. RRIRLRPPRLPRPRPRPCEHPRP : -0.00776
15. RRIRLRPPRLPRPRPRPLYFPRP : -0.646
16. RRIRIRPPRLPRPRPRPCGTPRP : -0.00435
17. RRIRNRPPRLPRPRPRPCKIPRP : -0.00963
18. RRIRQRPPRLPRPRPRPCNPPRP : -0.0715
19. RRIRVRPPRLPRPRPRPHAKPRP : 0.0066
20. RRIRCRPPRLPRPRPRPVEYPRP : -0.0499

src = the supplement of paper PMC9112550
